- system tested: Solute carrier family 12 member 2 (Homo sapiens) (UniProt P55011)
- Sequence (P55011 whole entry, looked up): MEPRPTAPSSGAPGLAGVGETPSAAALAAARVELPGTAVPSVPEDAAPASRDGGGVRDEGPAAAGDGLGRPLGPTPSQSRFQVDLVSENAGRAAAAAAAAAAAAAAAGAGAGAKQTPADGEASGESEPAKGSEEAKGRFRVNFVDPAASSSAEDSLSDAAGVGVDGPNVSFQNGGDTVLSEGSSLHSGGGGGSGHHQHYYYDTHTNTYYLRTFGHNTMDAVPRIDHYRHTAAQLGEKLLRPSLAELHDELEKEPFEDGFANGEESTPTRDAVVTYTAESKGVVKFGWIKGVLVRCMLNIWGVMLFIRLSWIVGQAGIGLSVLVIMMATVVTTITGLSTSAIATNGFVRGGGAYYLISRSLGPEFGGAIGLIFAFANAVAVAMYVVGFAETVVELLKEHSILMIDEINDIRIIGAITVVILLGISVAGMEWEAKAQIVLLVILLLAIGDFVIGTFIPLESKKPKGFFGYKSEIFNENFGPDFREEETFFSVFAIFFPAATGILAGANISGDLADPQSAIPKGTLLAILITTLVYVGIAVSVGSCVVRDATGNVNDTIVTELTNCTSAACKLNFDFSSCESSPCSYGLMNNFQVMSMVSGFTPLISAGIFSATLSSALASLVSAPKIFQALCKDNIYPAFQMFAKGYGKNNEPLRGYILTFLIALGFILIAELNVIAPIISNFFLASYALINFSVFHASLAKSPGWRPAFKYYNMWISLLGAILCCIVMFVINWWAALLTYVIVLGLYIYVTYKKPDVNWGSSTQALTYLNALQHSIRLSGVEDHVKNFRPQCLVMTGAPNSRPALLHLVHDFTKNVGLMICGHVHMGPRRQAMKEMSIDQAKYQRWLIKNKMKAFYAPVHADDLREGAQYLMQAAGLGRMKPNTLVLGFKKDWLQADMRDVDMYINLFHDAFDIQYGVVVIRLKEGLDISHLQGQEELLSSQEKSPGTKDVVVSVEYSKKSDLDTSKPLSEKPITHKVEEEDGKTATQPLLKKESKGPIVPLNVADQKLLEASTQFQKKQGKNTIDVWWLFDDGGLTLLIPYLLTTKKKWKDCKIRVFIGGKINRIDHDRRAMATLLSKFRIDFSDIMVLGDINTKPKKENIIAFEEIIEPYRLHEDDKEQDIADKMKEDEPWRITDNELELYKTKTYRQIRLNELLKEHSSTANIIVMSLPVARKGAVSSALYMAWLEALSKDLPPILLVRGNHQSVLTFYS
- test name: NKCC1 ion transport inhibition – HEK-293 overexpressing cells, thallium flux, dose response (AID 1919674)
- test context: HEK-293 SLC12A2 OE, thallium flux fluorescence (FLIPR)
value type: IC50

Query: Please state recorded IC50 (tested on Solute carrier family 12 member 2 (Homo sapiens) (UniProt P55011)) of "[Tl+]"
Reply: 600 µM
